system_under_test: T1, mouse 4-1BB protein (extracellular domain) (mouse, UniProt P20334 24-187)
T1 construct: extracellular domain; also called mouse 4-1BB-his; mouse 4-1BB-hFc protein
T1 sequence (looked up): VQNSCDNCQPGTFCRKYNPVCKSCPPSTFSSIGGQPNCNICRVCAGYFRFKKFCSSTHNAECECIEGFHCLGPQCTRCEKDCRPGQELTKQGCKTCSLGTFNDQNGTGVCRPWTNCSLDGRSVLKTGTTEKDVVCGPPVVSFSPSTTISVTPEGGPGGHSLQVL
measurement_notes: ELISA, coated mouse 4-1BB; Ab 0.016 ug/ml
parameter: OD450 nm (OD450 nm)
Record the value in OD450 nm, omitting the unit from your answer.

binder	OD450 nm (OD450 nm)
170D7F2 (antibody, V domains shown) VH: QVQLVQSGAEVKKPGASVKVSCKASGYTFTSYDINWVRQATGQGLEWMGWMNPNSGNTGYAQKFQGRVTMTRNTSISTAYMELSSLRSEDTAVYYCARETGPFDYWGQGTLVTVSS VL: DIQMTQSPSSLSASVGDRVTITCRASQRINNYLNWYQQKPGKAPKLLIYGASSLQSGVPSRFSGSGSGTDFTLTISSLQPEDFATYYCQQSYSTPFTFGPGTKVDIK	0.18
118F3A2 (antibody, V domains shown) VH: QVQLQQWGAGLLKPSETLSLTCGVYGGSFSTNYWSWIRQSPGKGLEWIGEINHSGNTEYNPSLKSRLTISIDTSKNQFSLKLTSVTAADTAVYYCARMGYHSPSFDFWGQGVLVTVSS VL: KIVMTQSPATLSVSPGERATLPCRVSQGIGSNLAWYQQKPGQAPRLLIYGASTRATGVPARFSGSGSGSEFTLTISSLQSEDLALYYCQQYNNWPLTFGGGTKVEIK	0.09

Q. What value of measured OD450 nm is listed for 57B3D10 (antibody, V domains shown, also called 4-1BB fully human antibody 57B3D10) VH: QVQLQESGPGLVKPSETLSLTCTVSGGSISSYYWSWIRQPPGKGLEWIGYIYYSGSTNYNPSLKSRVTISVDTSKSQFSLKLTSVTAADTAVYYCAKDSDYYGSGSYSYWYFDLWGRGTLVTVSS VL: EIVMTQSPATLSVSPGERATLSCRASQSVSSNLAWYQQKPGQAPRLLIYGASTRAPGIPARFSGSGSGTEFTLTISSLQSEDFAVYYCQQYNNWPLTFGGGTKVEIK ?
A. 0.16

Q. For the binder shown here, 172E3E3 (antibody, V domains shown) VH: QVQLQESGPGLVKPSGTLSLTCAVSGGSISSSNWWSWVRQPPGKGLEWIGEIYHSGSTNYNPSLKSRVTISVDKSKNQLSLNLSSVTAADTAVYYCARQGGVAGTLYWYFDLWGRGTLVTVSS VL: DIVMTQSPLSLPVTPGEPASISCRSSQGLLHSNGYNYLDWYLQKPGQSPQLLIYLGSNRASGVPDRFIGSGSGTDFTLKIRRVEAEDVGVYYCMQVLQTPWTFGQGTKVEIK , give the reported OD450 nm.
A. 0.05

Q. Fill blank: measured OD450 nm of the binder 113F6C6 (antibody, V domains shown, also called 4-1BB fully human antibody 113F6C6; 113F6F6) VH: QVQLVESGGGVVQPGRSLRLSCAASGLTFSSYGMHWVRQAPGKGLEWVAVIWYDGSNKYYADSVKGRFTISRDNSKNTLYLQMNSLRAEDTAVYYCAREEVLWFGELSYNYYYGMDVWGQGTTVTVSS VL: DIQMTQSPSSLSASVGDRVTITCRASQGISNYLAWYQQKPGKVPKLLIYAASTLQSGVPSRFSGSGSGTDFTLTISSLQPEDVATYYCQKYNSVPLTFGGGTKVEIK is ____.
A. 0.05
